All values here come from patent US20160237059A1.

molecular target: human CCR2 (Homo sapiens, UniProt P41597); test: Functional Ca2+ release test (B-1); settings: Chem-1 cell line transfected with human CCR2; 50% inhibition of the MCP-1 effect, MCP-1 at EC50 (about 5 nM); in some cases means of several determinations
pIC50: −log10 of the molar value.
METRIC NAME: pIC50

A. O=c1[nH]c(-c2cccc(Cl)n2)nc(C(F)(F)F)c1Cc1ccc(Cl)c(Cl)c1
B. Nc1cnc2cnn(-c3nc(C(F)(F)F)c(Oc4ccc(Cl)c(Cl)c4)c(=O)[nH]3)c2c1
C. COc1ccc(-c2nc(C(F)(F)F)c(Oc3ccc(Cl)c(C(F)(F)F)c3)c(=O)[nH]2)nc1
D. Cc1cc(-c2nc(C(F)(F)F)c(Oc3ccc(Cl)c(Cl)c3)c(=O)[nH]2)no1
List the 4 molecules shown above, ordered by increasing pIC50. Output the labels ranked as instructed.
A, B, C, D

1. Cc1cnc(-c2nc(C(F)(F)F)c(Oc3ccc(Cl)c(Cl)c3)c(=O)[nH]2)cc1C
2. CN(C)c1ccc(-c2nc(C(F)(F)F)c(Oc3ccc(Cl)c(Cl)c3)c(=O)[nH]2)nc1
3. C[S+]([O-])c1cccnc1-c1nc(C(F)(F)F)c(Oc2ccc(Cl)c(C(F)(F)F)c2)c(=O)[nH]1 (stereo not shown)
Ordering criterion: pIC50; begin with the maximum. Please list the labels in the order you were asked to rank them.
2, 1, 3
(2: 9.10, 1: 8.59, 3: 7.92)

A. O=c1[nH]c(-c2cc[nH]n2)nc(C(F)(F)F)c1Oc1ccc(Cl)c(C(F)(F)F)c1
B. O=C1OCCN1c1nc(C(F)(F)F)c(Cc2ccc(Cl)c(Cl)c2)c(=O)[nH]1
Hey, which is lower on measured pIC50, A or B ? Mark your selection by writing its label.
B

A. O=c1[nH]c(Cc2ccno2)nc(C(F)(F)F)c1Oc1ccc(Cl)c(Cl)c1
B. COc1cccnc1-c1nc(C(F)(F)F)c(Oc2ccc(Cl)c(Cl)c2)c(=O)[nH]1
C. O=c1[nH]c(-c2n[nH]c3ccccc23)nc(C(F)(F)F)c1Oc1ccc(Cl)c(Cl)c1
D. CC(C)(C)Sc1cccnc1-c1nc(C(F)(F)F)c(Oc2ccc(Cl)c(C(F)(F)F)c2)c(=O)[nH]1
E. O=c1[nH]c(-c2ncccc2F)nc(C(F)(F)F)c1Cc1ccc(Cl)c(C(F)(F)F)c1
Sequence the entries by pIC50, beginning with the highest number. Response format: the labels, sorted as the prompt asks.
B, C, E, A, D
(B: 9.40, C: 9.15, E: 8.57, A: 7.57, D: 7.21)

I. N=c1[nH]c(-c2nc(C(F)(F)F)c(Oc3ccc(Cl)c(Cl)c3)c(=O)[nH]2)no1
II. Cc1cnc(-c2nc(C(F)(F)F)c(Oc3ccc(Cl)c(Cl)c3)c(=O)[nH]2)[nH]1
Lab note: check whether I or II shows the higher recorded pIC50. Return value: the label identifying the chosen record.
II

###

Biological target: human CCR2 (Homo sapiens, UniProt P41597)
Sequence (P41597 1-360 isoform P41597-2): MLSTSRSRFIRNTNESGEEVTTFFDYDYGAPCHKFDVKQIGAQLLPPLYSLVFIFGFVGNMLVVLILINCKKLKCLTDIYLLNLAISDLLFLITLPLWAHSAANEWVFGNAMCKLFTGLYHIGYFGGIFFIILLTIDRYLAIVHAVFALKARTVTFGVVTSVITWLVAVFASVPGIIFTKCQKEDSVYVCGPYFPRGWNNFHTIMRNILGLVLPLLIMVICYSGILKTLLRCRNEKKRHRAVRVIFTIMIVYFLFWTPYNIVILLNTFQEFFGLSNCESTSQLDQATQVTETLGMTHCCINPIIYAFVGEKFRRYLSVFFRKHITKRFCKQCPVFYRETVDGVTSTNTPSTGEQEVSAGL
Experiment: Functional Ca2+ release test (B-1)
Conditions: Chem-1 cell line transfected with human CCR2; 50% inhibition of the MCP-1 effect, MCP-1 at EC50 (about 5 nM); in some cases means of several determinations
METRIC NAME: IC50 (nM)

COMPOUND	TESTED TARGET	ENDPOINT UNIT	IC50
Cn1nc(-c2nc(C(F)(F)F)c(Oc3ccc(Cl)c(C(F)(F)F)c3)c(=O)[nH]2)c2cccnc21 [Example 206]	human CCR2 (Homo sapiens, UniProt P41597)	nM	12
O=c1[nH]c(-c2ccc(Cl)cn2)nc(C(F)(F)F)c1Oc1ccc(Cl)c(Cl)c1 [Example 8]	human CCR2 (Homo sapiens, UniProt P41597)	nM	3.9

P. COCc1cc(-c2nc(C(F)(F)F)c(Oc3ccc(Cl)c(C(F)(F)F)c3)c(=O)[nH]2)no1 [Example 221]
Q. O=c1[nH]c(-c2ccon2)nc(C(F)(F)F)c1Oc1ccc(Cl)c(C(F)(F)F)c1 [Example 230]
R. O=c1[nH]c(-c2ncccc2OC(F)(F)F)nc(C(F)(F)F)c1Oc1ccc(Cl)c(Cl)c1 [Example 203]
S. COc1cc(OC)nc(-c2nc(C(F)(F)F)c(Oc3ccc(Cl)c(C(F)(F)F)c3)c(=O)[nH]2)n1 [Example 122]
Hello, I need these entries ordered by IC50, highest reading first. Thanks! Sort the labels as requested; that list is your answer.
R, P, S, Q
